- ASSAY PROCEDURE: NCI Yeast Anticancer Drug Screen. Data for the mlh1 rad18 strain (AID 175)
- CONDITION SUMMARY: S. cerevisiae mlh1 rad18 strain growth inhibition; at 50.0 µM
This is part of a sample that, as a whole, favours compounds with a hit. Of some 79,000 tested, about 15% had one in any assay. Active and inactive are the calls of the source. No stated cut-off is given here; in the data, active means growth inhibition above about 70%; inactive means the rest.
Give one outcome, nothing more. List: true for active, false for inactive

Reference set, count: 10
Query :: Lab log entry: CCC1(c2ccccc2)SC(N)=NC1=O (stereo unspecified) — outcome as called in the assay?
Result :: false

Query :: Follow-up item: O=C1OC(Cl)C=C1c1ccccc1 (stereo unspecified)
Result :: false

Query :: Follow-up item: `CCOc1c(OC)ccc(C(C)=O)c1O`
Result :: false

Query :: Follow-up item: `Oc1ccc(Cl)cc1/C=N/NC(=S)Nc1cccc2cccnc12`
Result :: false

Query :: Follow-up item: CC(=O)OC1C(=O)OC(=O)C1OC(C)=O (stereo unspecified)
Result :: false

Query :: Follow-up item: `N/N=C1\C(Cl)=C(Cl)c2ccccc21`
Result :: false

Query :: Follow-up item: NNC(=O)CC(N)C(=O)O (stereo unspecified)
Result :: false

Query :: Follow-up item: `Nc1nc(-c2ccc(Cl)c(Cl)c2)cc(-c2cc(-c3ccc(Cl)c(Cl)c3)nc(N)n2)n1`
Result :: false

Query :: Follow-up item: `O=[N+]([O-])c1ccc(S(=O)(=O)N/N=C/c2cccc([N+](=O)[O-])c2)cc1`
Result :: false

Query :: Follow-up item: `Cc1cc2c(=O)c3ccccc3[nH]c2c(C(N)=O)c1C`
Result :: false

New cases:
Query :: Lab log entry: O=C1c2ccccc2C2(O)Nc3cc(O)ccc3C12O (stereo unspecified) — outcome as called in the assay?
Result :: false

Query :: Follow-up item: `COC(=O)c1cccc(O)c1O`
Result :: false

Query :: Follow-up item: `Cc1cc2c(=O)c(C(=O)O)c[nH]c2cc1-n1cccc1`
Result :: false

Query :: Follow-up item: O=C(CCC(=O)OCC1CCCO1)OCC1CCCO1 (stereo unspecified)
Result :: false

Query :: Follow-up item: `COc1ccccc1OCc1nnc(SCC(=O)O)n1-c1ccccc1`
Result :: false

Query :: Follow-up item: Nc1cccc(SC2CC(=O)N(c3ccc4c(c3)OCO4)C2=O)c1 (stereo unspecified)
Result :: true

Query :: Follow-up item: `O=S(=O)(CS(=O)(=O)Nc1ccccc1)Nc1ccccc1`
Result :: false

Query :: Follow-up item: O=C1CSC(c2ccccc2F)N1c1ncccn1 (stereo unspecified)
Result :: false

Query :: Follow-up item: CCOC(=O)C1SC(=Nc2ccc(Cl)cc2Cl)N=C1C (stereo unspecified)
Result :: false

Query :: Follow-up item: `C1Cc2nnnn2C1`
Result :: false

====

- ASSAY PROCEDURE: NCI Yeast Anticancer Drug Screen. Data for the cln2 rad14 strain (AID 165);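 further: 0% = growth equal to vehicle treated cultures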
- CONDITION SUMMARY: S. cerevisiae cln2 rad14 strain, at 50.0 µM, stronger effect = higher value
Compounds without any hit were thinned out: in the full panel of roughly 79,000, 15% have a hit.
The entries below come with measured growth inhibition values attached.
// units = %; emit number, no label

Query :: # growth inhibition lookup, item `CSc1cccc(NC(=S)NN/C(=N/S(=O)(=O)c2ccccc2)N2CCCC2)c1`
Result :: 2.3

Query :: Follow-up item: `CCCCCCCCn1c(C)nc2c(cnn2C)c1=O`
Result :: 20.9

Query :: Follow-up item: `O=CNC(NC=O)c1ccccc1[N+](=O)[O-]`
Result :: 0.65

Query :: Follow-up item: CCCN(C(=O)c1ccccc1)C(C#N)c1ccc(C(C#N)N(CCC)C(=O)c2ccccc2)cc1 (stereo unspecified)
Result :: -10.9

Query :: Follow-up item: `CCCCCCCC(=O)OCC(=O)c1ccc(-c2ccccc2)cc1`
Result :: -28.6

Query :: Follow-up item: `NC(=O)NC(N)=O`
Result :: -34.1

Query :: Follow-up item: `[N-]=[N+]=NC(=O)c1cccc2c1Cc1ccccc1-2`
Result :: -40.9

Query :: Follow-up item: Cc1ccc(NC(=O)C2C(=O)N(c3ccc(C)c(C)c3)C(=O)C2N=N)cc1C (stereo unspecified)
Result :: -41.8

====

- ASSAY PROCEDURE: NCI Yeast Anticancer Drug Screen. Data for the sgs1 mgt1 strain (AID 161);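 further: 0% = growth of cultures given vehicle only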
- CONDITION SUMMARY: S. cerevisiae sgs1 mgt1 strain, at 50.0 µM
This is part of a sample that, as a whole, favours compounds with a hit. Of some 79,000 tested, about 15% had one in any assay. The source made the active and inactive calls. Rule as the data show it: active = growth inhibition above about 70%; inactive = the rest.
Give one outcome, nothing more. List: 1 (yes) (active), 0 (no) (inactive)

Reference set, count: 5
Query :: Lab log entry: `COC(=O)/C=C1/OC(c2ccc(C)cc2C)=CC1=O` — outcome as called in the assay?
Result :: 0 (no)

Query :: Follow-up item: `Brc1cc2ccccc2nc1-c1ccccc1`
Result :: 0 (no)

Query :: Follow-up item: `CCOC(C)(OCC)c1ccccc1`
Result :: 0 (no)

Query :: Follow-up item: `CC(=O)c1c(C)nc(SSc2nc(C)c(C(C)=O)c(-c3ccc(Cl)cc3)c2C#N)c(C#N)c1-c1ccc(Cl)cc1`
Result :: 0 (no)

Query :: Follow-up item: `COC(=O)c1c(O)c2c(c3c1OC(C)(C)CC3)OC(C)(C)CC2`
Result :: 0 (no)

Now for a further compound.
Query :: Lab log entry: `CCCCSCCOC(=O)Nc1ccc(Cl)cc1` — outcome as called in the assay?
Result :: 1 (yes)

====

- ASSAY PROCEDURE: NCI Yeast Anticancer Drug Screen. Data for the mlh1 rad18 strain (AID 175)
- CONDITION SUMMARY: S. cerevisiae mlh1 rad18 strain growth inhibition; at 50.0 µM; stronger effect = higher value
The panel holds about 79,000 compounds, 15% with a hit somewhere; the sample as a whole holds those more often. Calls of active or inactive are those of the source. Rule as the data show it: active = growth inhibition above about 70%; inactive = the rest.
OBSERVATION TYPE: growth inhibition

Query :: # growth inhibition lookup, item `O=C(O)c1cncc(-c2ccccc2)c1`
Result :: 26% (inactive)

Query :: Follow-up item: COc1cc2cc3c4cc(OC)c(OC)cc4cc[n+]3c(CCC(=O)O)c2cc1OC (tested in a mixture with another compound)
Result :: -0.1% (inactive)

New cases:
Query :: # growth inhibition lookup, item CCOC(=O)CCC(N)C(N)=O (configuration not stated)
Result :: 23.9% (inactive)

Query :: Follow-up item: `Nc1ccc(CCc2ccc3ccccc3n2)cc1`
Result :: 33.5% (inactive)

Query :: Follow-up item: `c1ccc(Oc2nnc3c4ccccc4ccn23)cc1`
Result :: -0.35% (inactive)

Query :: Follow-up item: `O=CN/C=C\c1cc(O)ccc1O`
Result :: 13.1% (inactive)

Query :: Follow-up item: `O=C(NCCCCl)c1c(O)c2ccccc2[nH]c1=O`
Result :: 27.8% (inactive)

====

The entries below come with measured growth inhibition values attached.
- ASSAY PROCEDURE: NCI Yeast Anticancer Drug Screen. Data for the sgs1 mgt1 strain (AID 161);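 further: 0% = growth of cultures given vehicle only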
- CONDITION SUMMARY: S. cerevisiae sgs1 mgt1 strain, at 50.0 µM, stronger effect = higher value
Compounds without any hit were thinned out: in the full panel of roughly 79,000, 15% have a hit.
// units = %; emit number, no label

Illustrative cases are given below, each with its answer.
Query :: # growth inhibition lookup, item `CCCCCCCCCCCCCC#N`
Result :: 3.35

Query :: Follow-up item: `CCC1=C(O)C(=O)C(C)(C)C1=O`
Result :: -3.15

Query :: Follow-up item: CC(C)(C)OC(=O)NC(CC(N)=O)C(=O)O (stereo not drawn)
Result :: 8.9

Query :: Follow-up item: `Cc1ccc(S(=O)(=O)n2cncc2CO)cc1`
Result :: -15.1

Query :: Follow-up item: `Cc1cc(CSCCc2nc3ccccc3[nH]2)c(O)c(CSCCc2nc3ccccc3[nH]2)c1`
Result :: 5.55

Query :: Follow-up item: `Cc1ccc2[nH]c(=O)cc(C)c2c1`
Result :: 13.8

Query :: Follow-up item: O=C1CCCC(c2ccccc2)O1 (stereo not drawn)
Result :: 5.2

Query :: Follow-up item: `CC(=O)Nc1c(Cl)cc(N)cc1Cl`
Result :: 2.3

New cases:
Query :: # growth inhibition lookup, item CN1c2ccccc2N(C)C2C1N(C)c1ccccc1N2C (stereo not drawn)
Result :: -12.4

Query :: Follow-up item: `Cc1ccc(S(=O)(=O)Nc2ccc3ncsc3c2[N+](=O)[O-])cc1`
Result :: 98.3

Query :: Follow-up item: `CC(C)(c1ccccc1)c1ccc(Oc2ccc(C#N)c(C#N)c2)cc1`
Result :: -14

Query :: Follow-up item: `C=Nc1ccc([N+](=O)[O-])cc1`
Result :: -1.3

Query :: Follow-up item: `O=C(NNC1CCN(Cc2ccccc2)CC1)c1ccccc1`
Result :: 5.35
